# System: UO-31 renal
# experiment.notes: NCI-60 one-dose screen, 48 h
# condition.set: 10 µM unless noted
The panel holds about 83,000 compounds, 20% with a hit somewhere; the sample as a whole holds those more often. The source made the active and inactive calls. The calls were made as follows: active = growth percent below 10; inactive = the rest.
Outcomes: active, inactive

[
  {
    "molecule": "S=c1[nH]cccc1-c1nnc2n1Nc1nc3ccccc3cc1CS2",
    "answer.label": "inactive"
  },
  {
    "molecule": "COc1cc2nc(-c3ccc(C(F)(F)F)cc3)cc(OCCCN3CCCCC3)c2cc1OC",
    "answer.label": "inactive"
  },
  {
    "molecule": "CN1CCN(c2cc(F)c(NC3=C(Cl)C(=O)c4ncccc4C3=O)c(F)c2)CC1",
    "answer.label": "active"
  },
  {
    "molecule": "COc1nccnn1",
    "answer.label": "inactive"
  },
  {
    "molecule": "O=C(N/N=C/c1ccc(F)cc1)c1ccccc1Nc1cccc(C(F)(F)F)c1",
    "answer.label": "inactive"
  },
  {
    "molecule": "CNC(=O)NCC1OC(n2cnc3c(NC(=O)Nc4ccccc4)ncnc32)C(O[Si](C)(C)C(C)(C)C)C1O[Si](C)(C)C(C)(C)C (stereo not given)",
    "answer.label": "inactive"
  },
  {
    "molecule": "NC(=S)N/N=C(/c1ccccc1)c1ccccc1N",
    "answer.label": "inactive"
  },
  {
    "molecule": "COc1ccc(/C=N/NC(=O)c2cccc3cc[nH]c23)cc1O",
    "answer.label": "inactive"
  },
  {
    "molecule": "CCNC(=O)c1[nH]cc(-c2ccc(OC)cc2)c1-c1cc(OC)c(OC)c(OC)c1",
    "answer.label": "inactive"
  },
  {
    "molecule": "O=C(NNc1nc(Cl)nc(N2CCN(C(c3ccccc3)c3ccccc3)CC2)n1)c1ccccc1",
    "answer.label": "inactive"
  }
]

###

# Test system: NCI-H226 lung
# experiment.notes: NCI-60 one-dose screen, 48 h (100 = growth as untreated, 0 = no growth, -100 = all killed)
# condition.set: 10 µM unless noted
Compounds without any hit were thinned out: in the full panel of roughly 83,000, 20% have a hit.

[
  {
    "smiles.data": "COc1ccc(/C=C/c2n[nH]c3ccc(N4CCOC4=O)cc23)cc1",
    "readout.units": "%",
    "growth": 6.06
  },
  {
    "smiles.data": "CCCCCCc1nc2nc(Cl)c(Cl)nc2[nH]1",
    "readout.units": "%",
    "growth": 63.2
  },
  {
    "smiles.data": "COc1ccc(/C(=C\\c2ccccc2)C(=O)O)cc1OC",
    "readout.units": "%",
    "growth": 83.5
  },
  {
    "smiles.data": "CS(=O)(=O)Nc1cc(-c2ccc3ncnc(Nc4ccc5[nH]ncc5c4)c3c2)cnc1Cl",
    "readout.units": "%",
    "growth": 75
  },
  {
    "smiles.data": "O=C(O)c1ccc[n+](CC(=O)N2CCN(c3cc4c(cc3F)c(=O)c(C(=O)O)cn4C3CC3)CC2)c1",
    "readout.units": "%",
    "growth": 93.7
  },
  {
    "smiles.data": "COc1ccc(/C=C(/c2ccccc2)[N+](=O)[O-])cc1",
    "readout.units": "%",
    "growth": -6.73
  },
  {
    "smiles.data": "c1ccc(Cn2nc3c(c2-c2ccccc2)-c2oncc2CC3)cc1",
    "readout.units": "%",
    "growth": 103
  },
  {
    "smiles.data": "O=C(Nc1cccc(Cl)c1)Oc1c(Br)c(Br)c(Br)c(Br)c1Br",
    "readout.units": "%",
    "growth": 81.3
  },
  {
    "smiles.data": "O=S(=O)(c1ccccc1)N1CCCc2ccccc21",
    "readout.units": "%",
    "growth": 104
  },
  {
    "smiles.data": "CC(=O)c1c(C)[nH]c(-c2nc3ccc(N4CCN(C)CC4)cc3[nH]2)c1-c1ccccc1",
    "readout.units": "%",
    "growth": 55.2
  },
  {
    "smiles.data": "N/C(=N\\N=C\\c1cc2ccccc2[nH]1)N/N=C/c1cc2ccccc2[nH]1",
    "readout.units": "%",
    "growth": 93.7
  }
]

Reference source: PubChem BioAssay (NCI)
